# TGT: Bromodomain-containing protein 4 (Homo sapiens)
# PROCEDURE TEXT: Inhibition of His-tagged BRD4 bromodomain 1 (unknown origin) using [Lys (5,8,12,16) Ac] H4(1-21) as substrate by fluorescence based assay
Could you mark each record T if its IC50 falls strictly under 0.08 µM, and F if it equals or exceeds it?

Strictly below 0.08 µM in IC50? `Cn1cc(-c2ccccc2F)c2cc(C(=O)NCc3ccc(C(=O)Nc4ccccc4N)cc3)[nH]c2c1=O`
F

---

# System: MV4-11
# PROCEDURE TEXT: Antiproliferative activity against human MV4-11 cells assessed as cell viability after 72 hrs by CCK8 assay
# Assay type: functional, cell-based
# RUN PARAMETERS: MV4-11, 72 h
OUTCOME MEASURE: pIC50
Give bare numbers, as −log10 of the molar value.

// below: answered molecules
Cn1cc(-c2ccccc2Oc2ccccc2)c2cc(C(=O)NCc3ccc(C(=O)NO)cc3)[nH]c2c1=O ... 6.24
Cn1cc(-c2cccc(C(C)(C)O)c2)c2cc(C(=O)NCc3ccc(C(=O)Nc4ccccc4N)cc3)[nH]c2c1=O ... 5.66
Cn1cc(-c2ccccc2Oc2ccccc2)c2cc(C(=O)NCc3ccc(C(=O)Nc4ccccc4N)cc3)[nH]c2c1=O ... 7.10

State recorded pIC50 for all listed molecules.
1. COc1ccc(C(C)(C)O)cc1-c1cn(C)c(=O)c2[nH]c(C(=O)NCc3ccc(C(=O)Nc4ccccc4N)cc3)cc12
2. Cn1cc(-c2ccccc2Oc2ccccc2)c2cc(C(=O)NCCCCCC(=O)Nc3ccccc3N)[nH]c2c1=O
3. Cn1cc(-c2ccccc2Oc2ccccc2)c2cc(C(=O)NCCCCCCC(=O)Nc3ccccc3N)[nH]c2c1=O
4. Cn1cc(-c2ccccc2Oc2ccccc2)c2cc(C(=O)NCCCCCCC(=O)NO)[nH]c2c1=O

1: 6.38; 2: 7.15; 3: 6.89; 4: 6.74

---

# TGT: Bromodomain-containing protein 4 (Homo sapiens)
# PROCEDURE TEXT: Inhibition of His-tagged BRD4 bromodomain 1 (unknown origin) using [Lys (5,8,12,16) Ac] H4(1-21) as substrate by fluorescence based assay
OUTCOME MEASURE: pIC50
Give bare numbers, as −log10 of the molar value.

Before answering, review these 5 worked examples.
Cn1cc(-c2ccc(F)cc2)c2cc(C(=O)NCc3ccc(C(=O)Nc4ccccc4N)cc3)[nH]c2c1=O ... 7.36
Cn1cc(-c2cc(C(C)(C)O)ccc2Oc2ccc(F)cc2F)c2cc(C(=O)NCc3ccc(C(=O)Nc4ccccc4N)cc3)[nH]c2c1=O ... 7.74
Cn1cc(-c2ccccc2Oc2ccccc2)c2cc(C(=O)NCCCCC(=O)NO)[nH]c2c1=O ... 7.88
Cn1cc(-c2ccccc2Oc2ccccc2)c2cc(C(=O)NCCCCCCC(=O)Nc3ccccc3N)[nH]c2c1=O ... 6.85
COc1ccc(-c2cn(C)c(=O)c3[nH]c(C(=O)NCc4ccc(C(=O)Nc5ccccc5N)cc4)cc23)cc1 ... 7.39

Hi team, please reply with pIC50 for each item in this list.
1. Cn1cc(-c2cc(C(C)(C)O)ccc2Oc2ccccc2)c2cc(C(=O)NCc3ccc(C(=O)Nc4ccccc4N)cc3)[nH]c2c1=O
2. COc1ccccc1-c1cn(C)c(=O)c2[nH]c(C(=O)NCc3ccc(C(=O)Nc4ccccc4N)cc3)cc12

7.87
7.65
